protocolDescription: AUC (0 to infinity) in Wistar Han rat at 1 mg/kg, iv by LC-MS/MS analysis
Assay type: ADME, organism-based
Set-up: route intravenous, time infinity, dose 1 mg/kg
experimentalParameters: Wistar Han, in vivo
Numbered stars: 1 amine (or outer) side, 2 acyl side, 3 side chain; on linkers, the order of the positions; unused ones are H or OH. Square brackets hold non-standard residues; d marks the D form. Peptide text beside a SMILES is read from it. Trp(5-F) = N[C@@H](Cc1c[nH]c2ccc(F)cc12)C(=O)O; Lys(Me3) = C[N+](C)(C)CCCC[C@H](N)C(=O)O; X1 = O=C(CCSCc1cccc(CSCCN[*:1])c1)[*:2]; αMeP = C[C@@]1(C(=O)O)CCCN1
resultType: AUC(0-inf) (µM·h)
Reply with just the number (in µM·h).

Fill in: AUC(0-inf) of COc1ccc(C[C@@H]2NC(=O)[C@H](Cc3cnc[nH]3)NC(=O)[C@H](CC(=O)O)NC(=O)[C@H](Cc3c[nH]c4ccc(F)cc34)NC(=O)[C@H](Cc3c[nH]c4ccc(F)cc34)NC(=O)[C@@H](C)NC(=O)[C@H](CCCC[N+](C)(C)C)NC(=O)CCSCc3cccc(c3)CSCCNC(=O)[C@]3(C)CCCN3C2=O)cc1 (cyclo(DHY(Me)[αMeP][X1][Lys(Me3)][dA][Trp(5-F)][Trp(5-F)])) is ___
3.65

====

Notes on Ki obtained with Proprotein convertase subtilisin/kexin type 9 (Homo sapiens).
Sequence (Q8NBP7 31-152 limits assumed): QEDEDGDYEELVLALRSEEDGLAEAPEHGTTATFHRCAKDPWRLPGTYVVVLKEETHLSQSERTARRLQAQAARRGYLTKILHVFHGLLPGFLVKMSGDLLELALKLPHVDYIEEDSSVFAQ
Sequence (Q8NBP7 153-692 limits assumed): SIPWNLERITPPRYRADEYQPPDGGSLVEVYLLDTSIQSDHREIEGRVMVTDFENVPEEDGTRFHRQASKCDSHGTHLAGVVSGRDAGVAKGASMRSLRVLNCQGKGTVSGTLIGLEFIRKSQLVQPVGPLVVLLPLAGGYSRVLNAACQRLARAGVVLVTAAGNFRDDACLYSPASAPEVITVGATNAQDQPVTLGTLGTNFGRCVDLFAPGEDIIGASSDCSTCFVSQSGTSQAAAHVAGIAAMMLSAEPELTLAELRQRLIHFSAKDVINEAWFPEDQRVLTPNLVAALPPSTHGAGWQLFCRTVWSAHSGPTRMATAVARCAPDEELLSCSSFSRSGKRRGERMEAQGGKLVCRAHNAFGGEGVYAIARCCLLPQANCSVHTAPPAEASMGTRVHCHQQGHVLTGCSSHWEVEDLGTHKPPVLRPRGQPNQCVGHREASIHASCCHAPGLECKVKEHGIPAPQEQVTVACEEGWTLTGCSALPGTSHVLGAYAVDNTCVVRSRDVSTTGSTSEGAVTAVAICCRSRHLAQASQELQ
Numbered stars: 1 amine (or outer) side, 2 acyl side, 3 side chain; on linkers, the order of the positions; unused ones are H or OH. Bridge positions count the residues as written; N and C are the ends. Square brackets hold non-standard residues; d marks the D form. Peptide text beside a SMILES is read from it. * marks the point of attachment. Trp(5-F) = N[C@@H](Cc1c[nH]c2ccc(F)cc12)C(=O)O; mXylylene = c1cc(C[*:1])cc(C[*:2])c1; αMeP = C[C@@]1(C(=O)O)CCCN1; X2 = COCCOCCOCCOCCC(=O)*; Mpa = O=C(O)CCS
Reply with just the number (in nM).

{"molecule": "CC(C)(C)[C@H]1NC(=O)[C@H](CCCCN)NC(=O)CCSCc2cccc(c2)CSCCNC(=O)[C@]2(C)CCCN2C(=O)[C@H](Cc2ccc(O)cc2)NC(=O)[C@H](Cc2cnc[nH]2)NC(=O)[C@H](CC(=O)O)NC(=O)[C@H](Cc2c[nH]c3ccc(F)cc23)NC(=O)[C@H](Cc2c[nH]c3ccc(F)cc23)NC1=O", "testSystem": "Proprotein convertase subtilisin/kexin type 9 (Homo sapiens)", "readoutNumber": 4.2}

# ---- query molecule ----
Fill in: Ki of COCCOCCOCCOCCC(=O)NCCCC[C@@H]1NC(=O)CCSCc2cccc(c2)CSC[C@@H](C(N)=O)NC(=O)[C@]2(C)CCCN2C(=O)[C@H](Cc2ccc(O)cc2)NC(=O)[C@H](Cc2cnc[nH]2)NC(=O)[C@H](CC(=O)O)NC(=O)[C@H](Cc2c[nH]c3ccc(F)cc23)NC(=O)[C@H](Cc2c[nH]c3ccc(F)cc23)NC(=O)CNC1=O ([Mpa]K(X2)G[Trp(5-F)][Trp(5-F)]DHY[αMeP]C-NH2; linker 1-10 via mXylylene) is ___
9.4

====

The following compounds are listed with their measured remaining at 1 h, 100 µM values.
testSystem: Chymotrypsinogen A (Bos taurus, UniProt P00766)
protocolDescription: Enzymatic stability assessed as bovine pancreatic alpha-chymotrypsin-mediated compound hydrolysis by measuring parent compound remaining at 100 uM incubated for 1 hr by LC-MS/MS analysis
Type: ADME
experimentalParameters: cattle, read-out: Stabilty
Numbered stars: 1 amine (or outer) side, 2 acyl side, 3 side chain; on linkers, the order of the positions; unused ones are H or OH. Bridge positions count the residues as written; N and C are the ends. Square brackets hold non-standard residues; d marks the D form. Peptide text beside a SMILES is read from it. Trp(5-F) = N[C@@H](Cc1c[nH]c2ccc(F)cc12)C(=O)O; mXylylene = c1cc(C[*:1])cc(C[*:2])c1; αMeP = C[C@@]1(C(=O)O)CCCN1; Mpa = O=C(O)CCS
Give the value; after it, write the unit.

{"compound": "CC(C)[C@H]1NC(=O)[C@H](CCCCN)NC(=O)CCSCc2cccc(c2)CSCCNC(=O)[C@]2(C)CCCN2C(=O)[C@H](Cc2ccc(O)cc2)NC(=O)[C@H](Cc2cnc[nH]2)NC(=O)[C@H](CC(=O)O)NC(=O)[C@H](Cc2c[nH]c3ccc(F)cc23)NC(=O)[C@H](Cc2c[nH]c3ccc(F)cc23)NC1=O", "remaining at 1 h, 100 µM": "76.4%"}

Fill in: remaining at 1 h, 100 µM of CO[C@H](C)[C@@H]1NC(=O)[C@@H]2CCCN2C(=O)[C@H](Cc2c[nH]c3ccc(F)cc23)NC(=O)[C@H](Cc2c[nH]c3ccc(F)cc23)NC(=O)CNC(=O)[C@H](CCCCN)NC(=O)CCSCc2cccc(c2)CSC[C@@H](C(N)=O)NC(=O)[C@]2(C)CCCN2C(=O)[C@H](Cc2ccc(O)cc2)NC1=O ([Mpa]KG[Trp(5-F)][Trp(5-F)]PT(Me)Y[αMeP]C-NH2; linker 1-10 via mXylylene) is ___
91%

Fill in: remaining at 1 h, 100 µM of "C[C@H]1NC(=O)[C@H](CCCCN)NC(=O)CCSCc2cccc(c2)CSC[C@@H](C(N)=O)NC(=O)[C@]2(C)CCCN2C(=O)[C@H](Cc2ccc(O)cc2)NC(=O)[C@H]([C@@H](C)O)NC(=O)[C@@H]2C[C@H](F)CN2C(=O)[C@H](Cc2c[nH]c3ccc(F)cc23)NC(=O)[C@H](Cc2c[nH]c3ccc(F)cc23)NC1=O" is ___
100%

====

protocolDescription: Half life in C57BL/6 mouse whole blood at 100 uM by LC-MS/MS analysis
Type: ADME, tissue-based
Numbered stars: 1 amine (or outer) side, 2 acyl side, 3 side chain; on linkers, the order of the positions; unused ones are H or OH. Bridge positions count the residues as written; N and C are the ends. Square brackets hold non-standard residues; d marks the D form. Peptide text beside a SMILES is read from it. Trp(5-F) = N[C@@H](Cc1c[nH]c2ccc(F)cc12)C(=O)O; mXylylene = c1cc(C[*:1])cc(C[*:2])c1; αMeP = C[C@@]1(C(=O)O)CCCN1; Mpa = O=C(O)CCS
The following molecules are listed with their measured half-life at 100 µM values.

Previously resolved entries follow.
{"molecule": "C[C@H]1NC(=O)[C@H](CCCCN)NC(=O)CCSCc2cccc(c2)CSC[C@@H](C(N)=O)NC(=O)[C@]2(C)CCCN2C(=O)[C@H](Cc2ccc(O)cc2)NC(=O)[C@H]([C@@H](C)O)NC(=O)[C@@H]2C[C@H](F)CN2C(=O)[C@H](Cc2c[nH]c3ccc(F)cc23)NC(=O)[C@H](Cc2c[nH]c3ccc(F)cc23)NC1=O", "half-life at 100 µM": "> 6 h"}
{"molecule": "C[C@H]1NC(=O)[C@H](CCCCN)NC(=O)CCSCc2cccc(c2)CSCCNC(=O)[C@]2(C)CCCN2C(=O)[C@H](Cc2ccc(O)cc2)NC(=O)[C@H](Cc2cnc[nH]2)NC(=O)[C@H](CC(=O)O)NC(=O)[C@H](Cc2c[nH]c3ccc(F)cc23)NC(=O)[C@H](Cc2c[nH]c3ccc(F)cc23)NC1=O", "half-life at 100 µM": "3.1 h"}

# ---- query molecule ----
Fill in: half-life at 100 µM of C[C@@H](O)[C@@H]1NC(=O)[C@@H]2CCCN2C(=O)[C@H](Cc2c[nH]c3ccc(F)cc23)NC(=O)[C@H](Cc2c[nH]c3ccc(F)cc23)NC(=O)CNC(=O)[C@H](CCCCN)NC(=O)CCSCc2cccc(c2)CSC[C@@H](C(N)=O)NC(=O)[C@]2(C)CCCN2C(=O)[C@H](Cc2ccc(O)cc2)NC1=O ([Mpa]KG[Trp(5-F)][Trp(5-F)]PTY[αMeP]C-NH2; linker 1-10 via mXylylene) is ___
> 6 h
